Tested on: MDA-MB-231
testDetails: Cytotoxicity against human MDA-MB-231 cells after 72 hrs by MTT assay
Type: functional, cell-based
conditionNotes: MDA-MB-231, 72 h
pIC50: −log10 of the molar value.
For each record, write down the corresponding pIC50.

Ask: # query: pIC50 | item COc1cc(/C=C/[N+](=O)[O-])ccc1OC(=O)c1ccc(Cl)cc1Cl | system: MDA-MB-231
Reply: < 4.70

Ask: Request - read-out pIC50 | tested on MDA-MB-231 | compound COc1cc(/C=C/[N+](=O)[O-])ccc1OC(=O)c1ccccc1
Reply: 4.88

Ask: So what pIC50 did COc1cc(/C=C/[N+](=O)[O-])ccc1OC(=O)c1cccc(F)c1F get with MDA-MB-231?
Reply: < 4.70

Ask: Hi! What's the reported pIC50 for COc1cc(/C=C/[N+](=O)[O-])ccc1OC(=O)c1ccccc1C(F)(F)F on MDA-MB-231?
Reply: < 4.70

Ask: Write down the reported pIC50 of COc1cc(/C=C/[N+](=O)[O-])ccc1OC(=O)c1ccc(Cl)c(Cl)c1 , test system: MDA-MB-231.
Reply: < 4.70

Ask: Return pIC50 measured with MDA-MB-231 given this compound: COc1cc(/C=C/[N+](=O)[O-])ccc1OC(=O)c1cccc(C(F)(F)F)c1
Reply: < 4.70

Ask: API: value(readout=pIC50, system=MDA-MB-231) for record O=[N+]([O-])/C=C/c1ccc(Cl)cc1
Reply: < 4.70

Ask: API: value(readout=pIC50, system=MDA-MB-231) for record COc1cc(/C=C/[N+](=O)[O-])ccc1OC(=O)c1ccccc1C
Reply: < 4.70

Ask: Request: pIC50, test system MDA-MB-231, entry COc1cc(/C=C/[N+](=O)[O-])ccc1OC(=O)c1cc(Cl)cc(Cl)c1
Reply: < 4.70

Ask: // fetch MDA-MB-231 pIC50 for COc1cc(/C=C/[N+](=O)[O-])ccc1OC(=O)c1ccccc1Br
Reply: < 4.70

Ask: Give pIC50 (MDA-MB-231) of the following compound: COc1cc(/C=C/[N+](=O)[O-])ccc1OC(=O)c1cc(OC)c(OC)c(OC)c1
Reply: 4.86

Ask: // lookup pIC50 | system=MDA-MB-231 | key= O=[N+]([O-])/C=C/c1ccc(O)cc1
Reply: < 4.70

Ask: Recall the recorded pIC50 for COc1cc(/C=C/[N+](=O)[O-])ccc1OC(=O)c1ccc(Br)cc1 with MDA-MB-231 and state it.
Reply: < 4.70

Ask: Find the measured pIC50: item COc1cc(/C=C/[N+](=O)[O-])ccc1OC(=O)c1cccc(C)c1 , target or system MDA-MB-231.
Reply: 4.87

Ask: What pIC50 appears in the records for this compound with MDA-MB-231? COc1cc(/C=C/[N+](=O)[O-])ccc1OC(=O)c1ccc(Cl)cc1
Reply: < 4.70

Ask: Recall the recorded pIC50 for COc1cc(/C=C/[N+](=O)[O-])ccc1OC(=O)c1cccc(Cl)c1 with MDA-MB-231 and state it.
Reply: 4.72

Ask: Kindly state the measured pIC50 obtained for COc1cc(/C=C/[N+](=O)[O-])ccc1OC(=O)c1ccc(C)cc1 with MDA-MB-231.
Reply: < 4.70

Ask: Request - read-out pIC50 | tested on MDA-MB-231 | compound CCOc1cc(/C=C(\C)[N+](=O)[O-])ccc1OC(=O)c1ccccc1
Reply: 4.92

Ask: Provide value of pIC50 for this record tested with MDA-MB-231: COc1cc(/C=C/[N+](=O)[O-])ccc1OC(=O)c1ccccc1F
Reply: < 4.70

Ask: What measured pIC50 is associated with COc1cc(/C=C/[N+](=O)[O-])ccc1OC(=O)c1cccc(Br)c1 on MDA-MB-231?
Reply: < 4.70

Ask: Return pIC50 measured with MDA-MB-231 given this compound: COc1ccc(/C=C(\C)[N+](=O)[O-])cc1OC(=O)c1ccccc1
Reply: 5.18

Ask: Record lookup: for MDA-MB-231, what pIC50 belongs to CCOc1cc(/C=C/[N+](=O)[O-])ccc1O ?
Reply: < 4.70
